biological target: CDK12 complexed with Cyclin K (Homo sapiens (Human), UniProt Q9NYV4); assay: CDK enzymatic assay (HTRF, LANCE Ultra kinase assay); conditions: 60 minutes pre-incubation, 1 mM ATP
Sequence (Q9NYV4 whole entry): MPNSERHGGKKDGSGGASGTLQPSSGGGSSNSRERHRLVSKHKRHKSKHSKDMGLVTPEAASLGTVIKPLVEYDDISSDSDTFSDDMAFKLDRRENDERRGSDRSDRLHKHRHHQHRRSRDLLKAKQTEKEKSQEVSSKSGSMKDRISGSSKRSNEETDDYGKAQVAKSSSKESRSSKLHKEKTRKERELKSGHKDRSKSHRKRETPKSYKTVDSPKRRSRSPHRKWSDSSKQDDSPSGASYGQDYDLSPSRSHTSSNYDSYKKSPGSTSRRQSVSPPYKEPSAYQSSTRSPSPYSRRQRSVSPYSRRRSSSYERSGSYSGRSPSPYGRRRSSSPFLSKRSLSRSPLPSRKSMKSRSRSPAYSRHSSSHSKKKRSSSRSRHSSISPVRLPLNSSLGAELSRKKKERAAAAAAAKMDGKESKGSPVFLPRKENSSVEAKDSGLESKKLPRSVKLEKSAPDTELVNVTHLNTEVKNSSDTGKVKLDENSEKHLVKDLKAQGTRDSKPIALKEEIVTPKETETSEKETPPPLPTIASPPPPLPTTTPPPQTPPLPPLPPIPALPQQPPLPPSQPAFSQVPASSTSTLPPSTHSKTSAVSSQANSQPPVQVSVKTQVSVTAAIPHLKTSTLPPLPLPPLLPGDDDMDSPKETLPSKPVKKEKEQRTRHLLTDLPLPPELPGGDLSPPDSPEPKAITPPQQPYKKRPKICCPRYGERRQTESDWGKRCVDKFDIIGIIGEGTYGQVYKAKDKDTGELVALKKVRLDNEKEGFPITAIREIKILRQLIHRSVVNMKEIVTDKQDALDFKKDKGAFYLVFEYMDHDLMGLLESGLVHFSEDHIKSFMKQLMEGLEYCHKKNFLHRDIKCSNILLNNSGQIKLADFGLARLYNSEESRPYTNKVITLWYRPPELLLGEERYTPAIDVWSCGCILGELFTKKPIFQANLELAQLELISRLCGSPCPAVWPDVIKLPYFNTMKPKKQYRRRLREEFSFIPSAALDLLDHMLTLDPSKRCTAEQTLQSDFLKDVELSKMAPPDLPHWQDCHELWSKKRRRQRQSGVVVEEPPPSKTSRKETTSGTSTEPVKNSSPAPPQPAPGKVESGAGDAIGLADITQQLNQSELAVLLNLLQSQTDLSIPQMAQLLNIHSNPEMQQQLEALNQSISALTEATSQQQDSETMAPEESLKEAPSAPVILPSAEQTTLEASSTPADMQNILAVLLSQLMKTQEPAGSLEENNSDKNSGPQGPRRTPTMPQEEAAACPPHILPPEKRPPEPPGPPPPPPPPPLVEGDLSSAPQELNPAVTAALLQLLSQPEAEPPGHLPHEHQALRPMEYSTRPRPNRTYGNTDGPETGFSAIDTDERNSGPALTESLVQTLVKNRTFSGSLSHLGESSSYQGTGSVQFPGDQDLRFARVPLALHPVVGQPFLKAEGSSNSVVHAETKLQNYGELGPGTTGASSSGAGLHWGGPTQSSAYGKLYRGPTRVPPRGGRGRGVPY
Sequence (O75909 whole entry partner): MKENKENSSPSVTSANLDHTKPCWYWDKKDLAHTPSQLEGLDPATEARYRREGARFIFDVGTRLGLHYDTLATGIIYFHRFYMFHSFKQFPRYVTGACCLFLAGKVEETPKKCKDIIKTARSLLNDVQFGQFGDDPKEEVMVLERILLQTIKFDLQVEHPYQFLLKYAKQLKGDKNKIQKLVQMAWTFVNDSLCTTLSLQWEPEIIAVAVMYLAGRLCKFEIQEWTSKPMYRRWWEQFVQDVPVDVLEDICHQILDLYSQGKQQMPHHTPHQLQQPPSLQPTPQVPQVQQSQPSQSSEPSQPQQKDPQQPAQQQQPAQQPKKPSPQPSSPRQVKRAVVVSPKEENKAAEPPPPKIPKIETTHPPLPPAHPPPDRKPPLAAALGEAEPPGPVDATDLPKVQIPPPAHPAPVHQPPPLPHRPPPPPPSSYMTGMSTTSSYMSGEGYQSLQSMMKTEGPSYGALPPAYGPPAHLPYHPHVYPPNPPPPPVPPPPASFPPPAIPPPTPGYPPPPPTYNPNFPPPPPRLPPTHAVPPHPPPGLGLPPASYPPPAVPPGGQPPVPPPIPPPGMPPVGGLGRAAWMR
pIC50: −log10 of the molar value.
Field: pIC50. Provide a value for each of the molecules that follow.

Recorded pIC50 of Cc1cnc(-c2nc(N[C@@H]3CCC[C@H](n4cnc5cc(C#N)cnc54)C3)ncc2C#N)n1C , please. 6.30 to 7.30

Please give the measured pIC50 for this molecule: N#Cc1cnc2c(c1)ncn2[C@@H]1CCC[C@H](Nc2ncc(C#N)c(-c3cnn(CC(F)F)c3)n2)C1 < 6.30

Reported pIC50, molecule N#Cc1cnc(N[C@@H]2CCC[C@H](n3cnc4cccc(Br)c43)C2)nc1-c1cnn(CC(F)F)c1 : ____ > 7.30

What value of measured pIC50 is listed for N#Cc1cnc(N[C@@H]2CCC[C@H](n3cnc4cccnc43)C2)nc1-c1c[nH]nc1C1CC1 ? > 7.30

Quick check: pIC50 of N#Cc1cnc2c(c1)ncn2[C@H]1CCC[C@@H](Nc2ncc(C#N)c(-c3cnn(CC4CC4)c3)n2)C1 ? > 7.30

Find the recorded pIC50 belonging to N#Cc1ccc2ncn([C@H]3CCC[C@@H](Nc4ncc(C#N)c(-c5cnn(CC(F)F)c5)n4)C3)c2n1 and report it. > 7.30

Look up pIC50 for this molecule: N#Cc1cnc2c(c1)ncn2[C@H]1CCC[C@@H](Nc2ncc(C#N)c(-c3cnn(C4CCOCC4)c3)n2)C1 > 7.30

Given the entry N#Cc1cnc2c(c1)ncn2[C@H]1CCC[C@@H](Nc2ncc(C#N)c(-c3cnn(CC(F)F)c3)n2)C1 , report its measured pIC50. > 7.30

Given the entry N#Cc1ccc2c(c1)ncn2[C@H]1CCC[C@@H](Nc2ncc(C#N)c(-c3cnn(CC(F)F)c3)n2)C1 , report its measured pIC50. > 7.30

Which pIC50 value is on record for N#Cc1cnc(N[C@@H]2CCC[C@H](n3cnc4cncc(Br)c43)C2)nc1-c1cnn(CC(F)F)c1 ? > 7.30

Which pIC50 is reported for this molecule? FC(F)Cn1cc(-c2nc(N[C@@H]3CCC[C@H](n4cnc5cc(C6CC6)cnc54)C3)ncc2C(F)(F)F)cn1 > 7.30

Entry N#Cc1cnc2c(c1)ncn2[C@H]1CCC[C@@H](Nc2ncc(-c3cn[nH]c3)c(-c3cnn(CC(F)F)c3)n2)C1 has what pIC50? 6.30 to 7.30

Entry N#Cc1cnc(N[C@@H]2CCC[C@H](n3cnc4ccccc43)C2)nc1-c1cnn(CC(F)F)c1 : reported pIC50 = ? > 7.30

Request the reported pIC50 associated with N#Cc1cnc(N[C@@H]2CCC[C@H](n3cnc4cc(F)cc(Cl)c43)C2)nc1-c1cnn(CC(F)F)c1 > 7.30

Entry Cn1ncc(-c2nc(N[C@@H]3CCC[C@H](n4cnc5cccnc54)C3)ncc2C#N)c1C(F)(F)F : reported pIC50 = ? 6.30 to 7.30

----------
biological target: CDK12 complexed with Cyclin K (Homo sapiens (Human)); assay: CDK enzymatic assay (HTRF, LANCE Ultra kinase assay); settings: 60 minutes pre-incubation, 1 mM ATP
pIC50: −log10 of the molar value.
assay readout: pIC50

Look at this molecule and give its reported pIC50. FC(F)Cn1cc(-c2nc(N[C@@H]3CCC[C@H](n4cnc5cccnc54)C3)ncc2C(F)(F)F)cn1 > 7.30

If you can, please state the reported pIC50 value of CC(=O)N1CCN(c2cnc3c(c2)ncn3[C@H]2CCC[C@@H](Nc3ncc(C#N)c(-c4cnn(CC(F)F)c4)n3)C2)CC1 . > 7.30

Can you look up the measured pIC50 of COc1ccc2ncn([C@H]3CCC[C@@H](Nc4ncc(C(F)(F)F)c(-c5cnn(CC(F)F)c5)n4)C3)c2n1 for me? > 7.30

Need pIC50 of CC(O)Cn1cc(-c2nc(N[C@@H]3CCC[C@H](n4cnc5cc(C#N)cnc54)C3)ncc2C#N)cn1 (stereo partly shown) , thanks. > 7.30

So what's the measured pIC50 for this one? Cn1cnc(-c2nc(N[C@@H]3CCC[C@H](n4cnc5cc(C#N)cnc54)C3)ncc2C#N)c1 > 7.30

Suppose we examine the molecule N#Cc1cc2ncn([C@H]3CCC[C@@H](Nc4ncc(C#N)c(-c5cnn(CC(F)F)c5)n4)C3)c2[n+]([O-])c1 ; what pIC50 value has been reported? > 7.30

Field request: pIC50 | item: N#Cc1cnc(N[C@@H]2CCC[C@H](n3cnc4cc(N5CCOCC5)cnc43)C2)nc1-c1cnn(CC(F)F)c1 > 7.30
